In this section we review reported Corticosterone levels (% change at 2 h) values for a set of compounds.
Tested on: plasma corticosterone levels
Experiment: Suppression of plasma corticosterone in ACTH-stimulated rats
Format: in vivo, Wistar rats
Conditions: 4 mg/kg p.o.; plasma level 2 h after dosing relative to 1 h prior to dosing; rat
Note: unit % is implicit; provide only the numeric part.

{"compound": "CC(=O)c1ccc(C2OCCn3cncc32)cc1 (stereo not shown) [Example 18]", "Corticosterone levels (% change at 2 h) / %": 4}

// lookup Corticosterone levels (% change at 2 h) for CC1(c2ccc(C#N)cc2)SCCn2cncc21 (stereo not shown) [Example 4]
−10

// lookup Corticosterone levels (% change at 2 h) for N#Cc1ccc(C2SCCn3cncc32)cc1 (stereo not shown) [Example 2]
−22

// lookup Corticosterone levels (% change at 2 h) for N#Cc1cccc(C2OCCn3cncc32)c1 (stereo not shown) [Example 19]
1.7
